Molecular target: mOBP5 (Mus musculus)
Construct: composed of an N-terminal His6-tag, followed by mOBP5 (Ala17-Glu163); made in house; host or cells: E. coli M15 [pREP4]
Sequence (Q9D3H2 17-163): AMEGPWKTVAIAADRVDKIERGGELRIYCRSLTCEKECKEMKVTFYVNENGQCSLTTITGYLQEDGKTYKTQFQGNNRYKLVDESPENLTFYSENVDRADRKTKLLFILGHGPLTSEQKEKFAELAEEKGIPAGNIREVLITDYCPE
Experiment: Isothermal titration microcalorimetry (ITC)
Format: binding
Details: 25 °C, 25 μM mOBP5, 250 μM odorant, phosphate buffer pH 7.5
Readout Kind: N ITC: binding stoichiometry per monomer determined by ITC

[
  {
    "Compound": "CC(C)=CCCC(C)=CC=O (mixture of isomers)",
    "Test Result": 0.65
  },
  {
    "Compound": "CCCCCCCCO",
    "Test Result": 0.71
  },
  {
    "Compound": "C=C(C)[C@H]1CC=C(C)C(=O)C1 [(+)-carvone]",
    "Test Result": 0.47
  },
  {
    "Compound": "CC(C)=CCC/C(C)=C/CO",
    "Test Result": 0.71
  },
  {
    "Compound": "CC(=O)OCCC(C)C [isoamyl acetate]",
    "Test Result": 0.87
  },
  {
    "Compound": "CC(C)[C@@H]1CC[C@@H](C)CC1=O",
    "Test Result": 0.58
  }
]

###

Biological target: mOBP5 (Mus musculus)
Construct: composed of an N-terminal His6-tag, followed by mOBP5 (Ala17-Glu163); made in house; host or cells: E. coli M15 [pREP4]
Sequence (Q9D3H2 17-163): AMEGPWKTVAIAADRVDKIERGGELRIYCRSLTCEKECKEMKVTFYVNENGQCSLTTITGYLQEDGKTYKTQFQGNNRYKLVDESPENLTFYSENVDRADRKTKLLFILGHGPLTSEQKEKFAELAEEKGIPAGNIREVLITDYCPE
Assay: Competitive fluorescence binding assay (displacement of NPN from mOBP5)
Conditions: calculated as Kd = [IC50]/(1 + [L]/Kd NPN); 2 μM mOBP5, 10 μM NPN; average of three experiments; read-out: Kd (µM) Fluo: dissociation constant determined by fluorescence

[
  {
    "Compound": "CC(C)=CCC/C(C)=C/CO [geraniol]",
    "Units Symbol": "µM",
    "Kd": 0.19
  },
  {
    "Compound": "CC12CCC(CC1=O)C2(C)C (stereo not drawn) [camphor]",
    "Units Symbol": "µM",
    "Kd": 1.6
  },
  {
    "Compound": "CC(C)[C@@H]1CC[C@@H](C)CC1=O [menthone]",
    "Units Symbol": "µM",
    "Kd": 0.23
  },
  {
    "Compound": "CC(=O)/C=C/C1=C(C)CCCC1(C)C [β-ionone]",
    "Units Symbol": "µM",
    "Kd": 0.71
  },
  {
    "Compound": "CCCCCCCO [1-heptanol]",
    "Units Symbol": "µM",
    "Kd": 0.59
  },
  {
    "Compound": "COc1nccnc1CC(C)C [3-iso-butyl-2-methoxy-pyrazine]",
    "Units Symbol": "µM",
    "Kd": 1.3
  },
  {
    "Compound": "CC(C)=CCCC(C)=CC=O (mixture of isomers) [citral]",
    "Units Symbol": "µM",
    "Kd": 0.61
  },
  {
    "Compound": "CC1CCC(C(C)C)C(O)C1 (stereo not drawn) [menthol]",
    "Units Symbol": "µM",
    "Kd": 0.38
  },
  {
    "Compound": "CCCCCCCCC(C)=O [2-decanone]",
    "Units Symbol": "µM",
    "Kd": 0.31
  },
  {
    "Compound": "CCCCCCCCO [1-octanol]",
    "Units Symbol": "µM",
    "Kd": 0.29
  },
  {
    "Compound": "C=CC(C)(O)CCC=C(C)C (stereo not drawn) [linalool]",
    "Units Symbol": "µM",
    "Kd": 0.3
  },
  {
    "Compound": "CCCCCCC1CCC(=O)O1 (stereo not drawn) [γ-decalactone]",
    "Units Symbol": "µM",
    "Kd": 0.58
  },
  {
    "Compound": "CC(=O)OCCC(C)C [isoamyl acetate]",
    "Units Symbol": "µM",
    "Kd": 0.6
  },
  {
    "Compound": "C=C(C)[C@H]1CC=C(C)C(=O)C1 [(+)-carvone]",
    "Units Symbol": "µM",
    "Kd": 0.28
  },
  {
    "Compound": "CC1=CCC2CC1C2(C)C (stereo not drawn) [α-pinene]",
    "Units Symbol": "µM",
    "Kd": 0.24
  },
  {
    "Compound": "C=C(C)C1CC=C(C)C(=O)C1 (single isomer, unassigned; (-)) [(-)-carvone]",
    "Units Symbol": "µM",
    "Kd": 0.28
  },
  {
    "Compound": "CCCCCCCC=O [octanal]",
    "Units Symbol": "µM",
    "Kd": 0.34
  },
  {
    "Compound": "CC(C=O)Cc1ccc(C(C)(C)C)cc1 (stereo not drawn) [lilialdehyde]",
    "Units Symbol": "µM",
    "Kd": 0.38
  }
]

###

Overview of reported Ka (ITC): association constant determined by ITC across a group of compounds:
Target: mOBP5 (Mus musculus, UniProt Q9D3H2)
Construct: composed of an N-terminal His6-tag, followed by mOBP5 (Ala17-Glu163); made in house; host or cells: E. coli M15 [pREP4]
Sequence (Q9D3H2 17-163): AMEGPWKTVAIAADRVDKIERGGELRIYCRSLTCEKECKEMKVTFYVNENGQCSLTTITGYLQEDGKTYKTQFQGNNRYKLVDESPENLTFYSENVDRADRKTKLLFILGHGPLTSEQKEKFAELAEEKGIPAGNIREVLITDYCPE
Assay: Isothermal titration microcalorimetry (ITC)
Type: binding
Settings: 25 °C, 25 μM mOBP5, 250 μM odorant, phosphate buffer pH 7.5; in M-1 (unit assumed)
Readout Kind: Ka (ITC): association constant determined by ITC

[
  {
    "Compound": "C=C(C)[C@H]1CC=C(C)C(=O)C1 [(+)-carvone]",
    "Test Result": "8.7E+06"
  },
  {
    "Compound": "CC(=O)OCCC(C)C [isoamyl acetate]",
    "Test Result": "8.6E+06"
  },
  {
    "Compound": "CC(C)=CCCC(C)=CC=O (mixture of isomers) [citral]",
    "Test Result": "1.3E+07"
  },
  {
    "Compound": "CCCCCCCCO [1-octanol]",
    "Test Result": "3.6E+07"
  },
  {
    "Compound": "CC(C)[C@@H]1CC[C@@H](C)CC1=O [menthone]",
    "Test Result": "1.8E+07"
  },
  {
    "Compound": "CC(C)=CCC/C(C)=C/CO [geraniol]",
    "Test Result": "2.5E+07"
  }
]

###

Target: mOBP5 (Mus musculus)
Construct: composed of an N-terminal His6-tag, followed by mOBP5 (Ala17-Glu163); made in house; host or cells: E. coli M15 [pREP4]
Sequence (Q9D3H2 17-163): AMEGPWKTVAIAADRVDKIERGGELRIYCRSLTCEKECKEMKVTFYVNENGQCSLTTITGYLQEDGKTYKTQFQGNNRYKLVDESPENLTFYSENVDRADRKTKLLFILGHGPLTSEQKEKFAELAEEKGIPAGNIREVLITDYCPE
Assay: Isothermal titration microcalorimetry (ITC)
Assay type: binding
Conditions: 25 °C, 25 μM mOBP5, 250 μM odorant, phosphate buffer pH 7.5; read-out: Kd (µM) ITC: dissociation constant determined by ITC (1/Ka)
Readout Kind: Kd

[
  {
    "Molecule": "CC(C)=CCC/C(C)=C/CO [geraniol]",
    "Test Result": "0.04 µM"
  },
  {
    "Molecule": "C=C(C)[C@H]1CC=C(C)C(=O)C1 [(+)-carvone]",
    "Test Result": "0.115 µM"
  },
  {
    "Molecule": "CC(C)[C@@H]1CC[C@@H](C)CC1=O [menthone]",
    "Test Result": "0.055 µM"
  },
  {
    "Molecule": "CC(C)=CCCC(C)=CC=O (mixture of isomers) [citral]",
    "Test Result": "0.076 µM"
  },
  {
    "Molecule": "CC(=O)OCCC(C)C [isoamyl acetate]",
    "Test Result": "0.116 µM"
  },
  {
    "Molecule": "CCCCCCCCO [1-octanol]",
    "Test Result": "0.028 µM"
  }
]
